Values from paper PMC7444660

- procedureSummary: Radioligand lipophilicity
- Type: physicochemical
- condition: n-octanol/sodium phosphate buffer, pH 7.4
Kindly state logD for each of the entries shown.
I'd appreciate a reply containing only the number, no unit.

Entry under test: Cn1cc(Cc2ccc(OC(F)F)c(-c3cccc(Cl)c3)n2)cn1 [Compound 4] . Its logD was 3.07

Entry under test: COc1ccc(Cc2ccncc2)nc1-c1cccc([N+](=O)[O-])c1 [Compound 5] . Its logD was 3.38

Entry under test: COc1ccc(Cc2ccncc2)nc1-c1cccc(Cl)c1 [Compound 3] . Its logD was 3.45

Entry under test: COc1ccc(Cc2cn[nH]c2)nc1-c1cccc([N+](=O)[O-])c1 [Compound 6] . Its logD was 2.89
